Ref: the supplement of paper PMC8253809

Below is a list of entries, each paired with its recorded growth inhibition value.
# Test system: HGGX6 (H3.3 G34R paediatric high-grade glioma line)
# METHOD_SUMMARY: growth inhibition (% activity, log2 RLU normalised to DMSO / staurosporine); higher = more growth inhibition
# SETUP_CONDITIONS: 33 µM
MEASURED_METRIC: growth inhibition (%)

{"COMPOUND": "O=C(CCCN1CCC(O)(c2ccc(Cl)cc2)CC1)c1ccc(F)cc1", "UNIT_DESCRIPTOR": "%", "QUANTITATIVE_READOUT": 1.74}
{"COMPOUND": "CC[C@@H]1/C=C(\\C)C[C@H](C)C[C@H](OC)[C@H]2O[C@@](O)(C(=O)C(=O)N3CCCC[C@H]3C(=O)O[C@H](/C(C)=C/[C@@H]3CC[C@H](Cl)[C@H](OC)C3)[C@H](C)[C@@H](O)CC1=O)[C@H](C)C[C@@H]2OC", "UNIT_DESCRIPTOR": "%", "QUANTITATIVE_READOUT": 2.73}
{"COMPOUND": "COC(=O)C1=C(C#N)NC(C)=C(C(=O)OC(C)C)C1c1cccc([N+](=O)[O-])c1 (centres undefined)", "UNIT_DESCRIPTOR": "%", "QUANTITATIVE_READOUT": -3.12}
{"COMPOUND": "CCN[C@@H]1C[C@H](N)[C@@H](O[C@H]2OC(CN)=CC[C@H]2N)[C@H](O)[C@H]1O[C@H]1OC[C@](C)(O)[C@H](NC)[C@H]1O", "UNIT_DESCRIPTOR": "%", "QUANTITATIVE_READOUT": -0.182}

----------
# Tested on: DIPGX37 (H3.3 K27M diffuse intrinsic pontine glioma line)
# METHOD_SUMMARY: growth inhibition (% activity, log2 RLU normalised to DMSO / staurosporine); higher = more growth inhibition
# SETUP_CONDITIONS: 33 µM
Measured growth inhibition, listed per entry for reference.

{"MOLECULE": "O=C1Cc2cc(CCN3CCN(c4nsc5ccccc45)CC3)c(Cl)cc2N1", "growth inhibition (%)": 1.3}
{"MOLECULE": "CO[C@H]1/C=C/O[C@@]2(C)Oc3c(C)c(O)c4c(O)c(c(/C=N/N5CCN(C)CC5)c(O)c4c3C2=O)NC(=O)/C(C)=C\\C=C\\[C@H](C)[C@H](O)[C@@H](C)[C@@H](O)[C@@H](C)[C@H](OC(C)=O)[C@@H]1C", "growth inhibition (%)": -0.311}
{"MOLECULE": "Cc1onc(-c2ccccc2)c1C(=O)N[C@@H]1C(=O)N2[C@@H]1SC(C)(C)[C@@H]2C(=O)O", "growth inhibition (%)": -1.12}
{"MOLECULE": "COc1ccc(C(=O)CC(=O)c2ccc(C(C)(C)C)cc2)cc1", "growth inhibition (%)": -1.81}
{"MOLECULE": "Cc1cc2c(cc1S(N)(=O)=O)S(=O)(=O)CCC2", "growth inhibition (%)": 2.86}
{"MOLECULE": "O=c1cc[nH]c(=O)[nH]1", "growth inhibition (%)": 2.71}
{"MOLECULE": "CC(NC(=O)Cc1cc(F)cc(F)c1)C(=O)NC(C(=O)OC(C)(C)C)c1ccccc1 (stereo not given)", "growth inhibition (%)": -1.56}
{"MOLECULE": "CN(C)CC/C=C1/c2ccccc2Sc2ccc(Cl)cc21", "growth inhibition (%)": 0.387}
{"MOLECULE": "NC[C@H](O)c1ccc(O)c(O)c1", "growth inhibition (%)": 2.54}
{"MOLECULE": "COc1ccc2cccc(CCNC(C)=O)c2c1", "growth inhibition (%)": -0.948}
